experiment: Solubility of the compound in buffer containing 10% DMSO; assay type: physicochemical

>  <STRUCTURE SMILES>
O=C(N[C@H]1c2ccccc2C/C=C/COc2cccc3c2[C@H](OC(=O)c2ccccc2)[C@@H]2C[C@@H](CN2C3)OC(=O)[C@@H]1O)c1ccccc1

>  <UNITS LABEL>
µM

>  <solubility>
60

$$$$
>  <STRUCTURE SMILES>
C=CCCOc1ccccc1[C@H](NC(=O)c1ccccc1)[C@@H](O)C(=O)O[C@H]1C[C@H]2[C@@H](OC(=O)c3ccccc3)c3c(cccc3OCC=C)CN2C1

>  <UNITS LABEL>
µM

>  <solubility>
60

$$$$
>  <STRUCTURE SMILES>
O=C(N[C@H]1c2ccccc2C/C=C/COc2cccc3c2[C@@H](OC(=O)c2ccccc2)[C@@H]2C[C@@H](CN2C3)OC(=O)[C@@H]1O)c1ccccc1

>  <UNITS LABEL>
µM

>  <solubility>
60

$$$$
>  <STRUCTURE SMILES>
O=C(N[C@H]1c2ccccc2OC/C=C/COc2cccc3c2[C@H](OC(=O)c2ccccc2)[C@@H]2C[C@@H](CN2C3)OC(=O)[C@@H]1O)c1ccccc1

>  <UNITS LABEL>
µM

>  <solubility>
60

$$$$
>  <STRUCTURE SMILES>
C=CCOc1cccc2c1[C@H](OC(=O)c1ccccc1)[C@@H]1C[C@H](OC(=O)[C@H](O)[C@@H](NC(=O)c3ccccc3)c3ccccc3CC=C)CN1C2

>  <UNITS LABEL>
µM

>  <solubility>
60

$$$$
>  <STRUCTURE SMILES>
C=CCOc1cccc2c1[C@@H](OC(=O)c1ccccc1)[C@@H]1C[C@H](OC(=O)[C@H](O)[C@@H](NC(=O)c3ccccc3)c3ccccc3CC=C)CN1C2

>  <UNITS LABEL>
µM

>  <solubility>
60

$$$$
>  <STRUCTURE SMILES>
O=C(N[C@H]1c2ccccc2OCC/C=C/COc2cccc3c2[C@H](OC(=O)c2ccccc2)[C@@H]2C[C@@H](CN2C3)OC(=O)[C@@H]1O)c1ccccc1

>  <UNITS LABEL>
µM

>  <solubility>
60

$$$$
>  <STRUCTURE SMILES>
C=CCOc1ccccc1[C@H](NC(=O)c1ccccc1)[C@@H](O)C(=O)O[C@H]1C[C@H]2[C@@H](OC(=O)c3ccccc3)c3c(cccc3OCC=C)CN2C1

>  <UNITS LABEL>
µM

>  <solubility>
60

$$$$

* * *

species: Bos taurus; experiment: Induction of bovine brain beta-tubulin assembly assessed as prevention of temperature-induced microtubule disassembly at 60 uM at 4 degC by absorption spectrophotometric analysis relative to control
The source made the active and inactive calls. No cut-off for these calls is given here.
READOUT TYPE: Activity

>  <STRUCTURE SMILES>
C=CCCOc1ccccc1[C@H](NC(=O)c1ccccc1)[C@@H](O)C(=O)O[C@H]1C[C@H]2[C@@H](OC(=O)c3ccccc3)c3c(cccc3OCC=C)CN2C1

>  <MEASURED RESULT>
Active

$$$$
>  <STRUCTURE SMILES>
O=C(N[C@H]1c2ccccc2C/C=C/COc2cccc3c2[C@@H](OC(=O)c2ccccc2)[C@@H]2C[C@@H](CN2C3)OC(=O)[C@@H]1O)c1ccccc1

>  <MEASURED RESULT>
Active

$$$$
>  <STRUCTURE SMILES>
O=C(N[C@H]1c2ccccc2C/C=C/COc2cccc3c2[C@H](OC(=O)c2ccccc2)[C@@H]2C[C@@H](CN2C3)OC(=O)[C@@H]1O)c1ccccc1

>  <MEASURED RESULT>
Active

$$$$
>  <STRUCTURE SMILES>
C=CCOc1ccccc1[C@H](NC(=O)c1ccccc1)[C@@H](O)C(=O)O[C@H]1C[C@H]2[C@@H](OC(=O)c3ccccc3)c3c(cccc3OCC=C)CN2C1

>  <MEASURED RESULT>
Active

$$$$
>  <STRUCTURE SMILES>
O=C(N[C@H]1c2ccccc2OCC/C=C/COc2cccc3c2[C@H](OC(=O)c2ccccc2)[C@@H]2C[C@@H](CN2C3)OC(=O)[C@@H]1O)c1ccccc1

>  <MEASURED RESULT>
Active

$$$$
>  <STRUCTURE SMILES>
C=CCOc1cccc2c1[C@H](OC(=O)c1ccccc1)[C@@H]1C[C@H](OC(=O)[C@H](O)[C@@H](NC(=O)c3ccccc3)c3ccccc3CC=C)CN1C2

>  <MEASURED RESULT>
Active

$$$$
>  <STRUCTURE SMILES>
O=C(N[C@H]1c2ccccc2OC/C=C/COc2cccc3c2[C@H](OC(=O)c2ccccc2)[C@@H]2C[C@@H](CN2C3)OC(=O)[C@@H]1O)c1ccccc1

>  <MEASURED RESULT>
Active

$$$$
>  <STRUCTURE SMILES>
C=CCOc1cccc2c1[C@@H](OC(=O)c1ccccc1)[C@@H]1C[C@H](OC(=O)[C@H](O)[C@@H](NC(=O)c3ccccc3)c3ccccc3CC=C)CN1C2

>  <MEASURED RESULT>
Active

$$$$
